- Test system: TO-3-N3-2 (biotin conjugate)
- protocol-notes: pull-down binding Z-score (relative to library population); higher = stronger binding
- test-settings: RNA library: Library-2
experimental-readout: pull-down binding Z-score

INSERT INTO measurements (residue_codes, observed_measurement) VALUES
  ('CAGCCCCGUGUGUUGAGGAAGGAAGG [hsa-mir-940]', 0.769),
  ('CGGUUGCUUGGUCAGCAAGUGCAUGUCAUGAUGGCAUGGGCUGGCUAACAAUCG [IAV_invivo_NA_6_Motif_7+IAV_invivo_NA_6_Motif_7]', -0.69),
  ('CAGCCAUGACCUGACCUUCUGUCUG [hsa-mir-4677]', -0.165),
  ('AUGCCUUUUUACCUUUUGCUAUGGGUAUUAUUGCUAUGUCUGCUUUUGCAAUGAUGUUUGUCAAACAUAAGCAUGCAU [DMSMaPseq_invitro_SARS-CoV-2_Multi_36_ComplexLevel_1]', 0.472),
  ('CUCAUGUAAACUAAAACAUGAU [hsa-mir-508]', -0.244),
  ('AGGGCCUUCUGAGCCCAGGUCCG [hsa-mir-6716]', 0.018),
  ('GAUUGGUUAGCCUAAGACUUGUUCUGAUCCAAUC [hsa-mir-5701-1_5701-2_5701-3]', 0.14),
  ('GUGAAUUCAACAU [DMSMaPseq_invitro_SARS-CoV-2_Motif_308]', -0.213);
